test-system: δ-opioid receptor (DOR) (Homo sapiens)
Sequence (P41143 whole entry): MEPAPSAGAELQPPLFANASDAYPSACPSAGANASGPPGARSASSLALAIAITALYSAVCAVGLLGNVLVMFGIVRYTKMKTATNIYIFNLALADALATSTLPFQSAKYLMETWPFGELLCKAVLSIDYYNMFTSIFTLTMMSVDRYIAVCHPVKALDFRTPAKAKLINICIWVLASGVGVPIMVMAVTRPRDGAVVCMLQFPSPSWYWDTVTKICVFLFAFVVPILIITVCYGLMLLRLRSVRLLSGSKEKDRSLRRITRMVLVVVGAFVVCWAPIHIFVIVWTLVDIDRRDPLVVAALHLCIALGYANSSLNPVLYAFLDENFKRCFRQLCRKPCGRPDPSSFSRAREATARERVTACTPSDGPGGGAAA
measurement-notes: NIMH PDSP radioligand competition binding, DOR
conditions: Ki value, δ-opioid; bound stated
measured-endpoint: Ki

[[record]]
structure_as_smiles = "C=CCN(CC=C)CCc1c(-c2ccccc2)[nH]c2ccccc12"
experimental_result = "< 10 µM"


----------
Here, each record is paired with measured Ki data.
test-system: D5 (Homo sapiens, UniProt P21918)
Sequence (P21918 whole entry): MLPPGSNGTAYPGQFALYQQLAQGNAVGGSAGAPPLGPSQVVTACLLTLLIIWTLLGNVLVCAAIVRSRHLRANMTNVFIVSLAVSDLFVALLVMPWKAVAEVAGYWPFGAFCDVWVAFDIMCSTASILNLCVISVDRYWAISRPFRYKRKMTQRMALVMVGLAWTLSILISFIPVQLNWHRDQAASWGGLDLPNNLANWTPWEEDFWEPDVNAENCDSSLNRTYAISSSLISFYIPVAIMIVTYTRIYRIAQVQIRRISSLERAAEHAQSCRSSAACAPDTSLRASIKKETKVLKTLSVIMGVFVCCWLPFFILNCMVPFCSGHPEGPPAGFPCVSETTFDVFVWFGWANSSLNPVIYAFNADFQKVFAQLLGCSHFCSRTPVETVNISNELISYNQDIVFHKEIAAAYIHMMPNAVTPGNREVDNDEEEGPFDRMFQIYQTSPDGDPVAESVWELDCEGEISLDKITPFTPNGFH
measurement-notes: NIMH PDSP radioligand competition binding, D5
conditions: Binding Affinity (Ki, nM), [3H]SCH23390, cloned human receptor
measured-endpoint: Ki

[[record]]
compound = "C=CCN(CC=C)CCc1c[nH]c2c(CC)cccc12"
experimental_result = "> 10000 nM"

[[record]]
compound = "C=CCN(CC=C)CCc1c(C)[nH]c2ccc(OC)cc12"
experimental_result = "> 10000 nM"

[[record]]
compound = "C=CCN(CC=C)CCc1c(C)[nH]c2ccc(F)cc12"
experimental_result = "> 10000 nM"

[[record]]
compound = "C=CCN(CC=C)CCc1c(-c2ccccc2)[nH]c2ccccc12"
experimental_result = "2000 nM"

[[record]]
compound = "C=CCN(CC=C)CCc1c[nH]c2cccc(O)c12 [4-HO-DALT, 4-hydroxy-N,N-diallyltryptamine]"
experimental_result = "> 10000 nM"

[[record]]
compound = "C=CCN(CC=C)CCc1c[nH]c2cccc(OC(C)=O)c12"
experimental_result = "> 10000 nM"

